Test system: CCRF-CEM leukemia
Test: NCI tumour cell line growth inhibition, 48 h
Assignment: determine reported TGI for the given compounds.

INPUT: // query TGI value for entry "O=C(CSc1nc2[nH]ncc2c(=O)[nH]1)c1ccc(Cl)cc1"
OUTPUT: > 100 µM

INPUT: # lookup: TGI of "COC(=O)/C=C(\C(=O)OC)c1c2c3c(cc(OC)c(OC)c3c3ccccc13)CCN2C"
OUTPUT: 85.4 µM

INPUT: Which TGI reading was recorded for the compound CC(/C(=N\Nc1ccccc1)c1ccc(O)cc1)C1C(=O)Oc2ccccc21 (centres undefined) ?
OUTPUT: > 100 µM

INPUT: Fill in the blank: the reported TGI of "Cc1ccccc1-n1ncc(C(=O)c2ccccc2)c1N" is ____.
OUTPUT: > 25 µM

INPUT: Returns the measured TGI for the input compound. Input: "CNC(=O)N(CCC#N)CCCN(C(=O)NC)c1ccccc1"
OUTPUT: > 100 µM

INPUT: Item "CCOc1ccc(N/C(Cl)=C(Cl)\C(=C(\Nc2ccc(OCC)cc2)n2nnc3ccccc32)[N+](=O)[O-])cc1" has what recorded TGI?
OUTPUT: 33.9 µM

INPUT: Form field: reported TGI of "C[C@]12CC[C@H](O)C[C@H]1CC[C@@H]1[C@@H]2CC[C@]2(C)[C@@H](C3=CC(=O)OC3)[C@@H](O)C[C@]12O"
OUTPUT: 2.42 µM

INPUT: Requested read-out: TGI. Entry: "Cc1nc(N/N=C/c2ccccc2Cl)[nH]c(=O)c1CCO"
OUTPUT: > 100 µM

INPUT: # TGI lookup, item "CNCc1cc(OC)ccc1-c1ccc(OC)c(OC)c1OC"
OUTPUT: > 100 µM
